assay: LNP zeta potential (Zetasizer); assay type: physicochemical; settings: LNP with cirRNA (SEQ ID NO: 1)
Kindly state Zeta (mV) for each of the entries shown.
Kindly provide the numeric value in mV only, without the unit symbol.

What measured Zeta (mV) goes with CCCCCCCCC(CCCCCC)C(=O)OCCCCCCCCN(CCCCCCCCCCC(=O)OCCCCCC)CCOC(=O)NCCN1CCN(C)CC1 (stereo not shown) [Lipid 46] ?
3.255

Endpoint output: Zeta (mV) of CCCCC/C=C\C/C=C\CCCCCCCCN(CCCCCCCC(=O)OC(CCCCCCCC)CCCCCCCC)CCCOC(=O)NCCCn1ccnc1 [Lipid 276] . Value?
−0.02248

Any idea what Zeta (mV) was measured for CCCCCCCCC(CCCCCC)C(=O)OCCCCCCCCN(CCCCCCCCOC(=O)C(CCCCCC)CCCCCCCC)CCCOC(=O)NCCN1CCCC1 (stereo not shown) [Lipid 379] ?
3.38

Fill in: Zeta (mV) of CCCCCCCCC(CCCCCCCC)OC(=O)CCCCCCCN(CCCCCCCCOC(=O)C(CCCCCC)CCCCCCCC)CCCOC(=O)NCCCN(CC)CC (stereo not shown) [Lipid 346] is ___
−0.00452

Name the recorded Zeta (mV) for CCCCCCCC/C=C\CCCCCCCCN(CCCCCCCCOC(=O)C(CCCCCC)CCCCCCCC)CCOC(=O)NCCCN(CC)CC (stereo not shown) [Lipid 213] .
13.22

Query: Zeta (mV); subject: CCCCCCCCCCC(CCCCCCCC)COC(=O)CCCCCN(CCCCCC(=O)OCC(CCCCCCCC)CCCCCCCCCC)CCCOC(=O)NCCN1CCCC1 (stereo not shown) [Lipid 369]
4.427

Report Zeta (mV) for CCCCC/C=C\C/C=C\CCCCCCCCN(CCCCCCCC(=O)OC(CCCCCCCC)CCCCCCCC)CCCOC(=O)NCCN1CCCC1 [Lipid 277] please.
−0.6853

Consider the compound CCCCCCCCCCCOC(=O)CCCCCN(CCCCCCCCOC(=O)C(CCCCCC)CCCCCCCC)CCOC(=O)NCCN1CCCCC1 (stereo not shown) [Lipid 227] and give its measured Zeta (mV).
4.217

Given CCCCCCCCC(CCCCCCCC)OC(=O)CCCCCCCN(CCCCCCCCOC(=O)C(CCCCCC)CCCCCCCC)CCCOC(=O)NCCN1CCCCC1 (stereo not shown) [Lipid 351] , state its recorded Zeta (mV).
−0.1951

Suppose we examine the compound CCCCCCCCC(CCCCCCCC)OC(=O)CCCCCCCN(CCCCCCCCOC(=O)C(CCCCCC)CCCCCCCC)CCCOC(=O)NCCc1ncc[nH]1 (stereo not shown) [Lipid 349] ; what Zeta (mV) value has been reported?
0.02482

Consider the compound shown here: CCCCCCCCC(CCCCCCCC)OC(=O)CCCCCCCN(CCCCCCCCOC(=O)C(CCCCCC)CCCCCCCC)CCOC(=O)NCCN(C)C (stereo not shown) [Lipid 66] What is its recorded Zeta (mV)?
−2.1

Zeta (mV) lookup needed for CCCCCCCCCCCOC(=O)CCCCCN(CCCCCCCCOC(=O)C(CCCCCC)CCCCCCCC)CCOC(=O)NCc1ncc[nH]1 (stereo not shown) [Lipid 221] , thanks.
−1.368

// returns reported Zeta (mV) for input CCCCCCCCCCCOC(=O)CCCCCN(CCCCCCCCOC(=O)C(CCCCCC)CCCCCCCC)CCOC(=O)NCCCN(C)C (stereo not shown) [Lipid 224]
27.23

Reference for the values: patent US12691070B2
